- System: SF-268, MCF-7, NCI-H460, and HepG-2 tumor cell lines
- procedure.text: SRB cytotoxicity, four tumor cell lines taken together
- Assay type: cell-based, human
- condition.context: SF-268, MCF-7, NCI-H460, HepG-2; SRB method
parameter: cytotoxic / inhibitory activity against the four tumor cell lines (in words)

CSC1(CO)C(=O)n2c(cc3ccccc32)C(=O)N1C (centres unmarked) [Compound 1, dichotocejpin A]
inactive or weak
CN1C(=O)[C@]2(O)Cc3ccccc3N2C(=O)[C@H]1CO [Compound 3, dichotocejpin C]
inactive or weak
C=C1C(=O)N2C3C(=CC=CC3OC(C)=O)CC2(O)C(=O)N1C (centres unmarked) [Compound 2, dichotocejpin B]
inactive or weak

====

For each of the compounds below, state its IC50.
- System: SF-268, MCF-7, NCI-H460, and HepG-2 tumor cell lines
- procedure.text: SRB cytotoxicity, four tumor cell lines taken together
- Type: cell-based, human
- condition.context: Homo sapiens; range over SF-268, MCF-7, NCI-H460, HepG-2; read-out: IC50 values against the four tumor cell lines

IC50 value, target or system SF-268, MCF-7, NCI-H460, and HepG-2 tumor cell lines, for CC(=O)O[C@H]1C=CC=C2C[C@]34SS[C@](CO)(C(=O)N3C21)N(C)C4=O (stereo partly drawn) : 80 to 1520 nM

SF-268, MCF-7, NCI-H460, and HepG-2 tumor cell lines IC50 of CN1C(=O)[C@]23CC4=CC=C[C@H](O)[C@H]4N2C(=O)[C@@]1(CO)SS3 is 80 to 1520 nM

Field IC50 (SF-268, MCF-7, NCI-H460, and HepG-2 tumor cell lines), entry CN1C(=O)[C@]23Cc4ccccc4N2C(=O)[C@@]1(CO)SS3 [Compound 4, 6-deoxy-5a,6-didehydrogliotoxin] : 80 to 1520 nM
